Molecular target: T1, MAGE-A1 peptide on HLA-A*02:01 (human)
T1 peptide: KVLEYVIKV
Test: JKR9 reporter + peptide-loaded T2, 16 h; full-length, on cells
We label by threshold. Values of EC50 of peptide strictly beneath 60 nM are satisfied. Values of 60 nM and up are not satisfied.

Examples from the recorded data:
# binder, classification
measured = [
    ("ht27M1009 (TCR, V domains shown) Valpha: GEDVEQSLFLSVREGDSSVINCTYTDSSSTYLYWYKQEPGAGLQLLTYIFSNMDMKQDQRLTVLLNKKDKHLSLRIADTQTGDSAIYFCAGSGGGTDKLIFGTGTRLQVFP Vbeta: GAVVSQHPSWVICKSGTSVKIECRSLDFQATTMFWYRQFPKQSLMLMATSDYQTCVTYEQGVEKDKFLINHASLTLSTLTVTSAHPEDSSFYICSAREPGQGPFEQYFGPGTRLTVT", "satisfied"),
    ("ht27M1363 (TCR, V domains shown) Valpha: GEDVEQSLFLSVREGDSSVINCTYTDSSSTYLYWYKQEPGAGLQLLTYIFNTQDMKQDQRLTVLLNKKDKHLSLRIADTQTGDSAIYFCAGSGGGTDKLIFGTGTRLQVFP Vbeta: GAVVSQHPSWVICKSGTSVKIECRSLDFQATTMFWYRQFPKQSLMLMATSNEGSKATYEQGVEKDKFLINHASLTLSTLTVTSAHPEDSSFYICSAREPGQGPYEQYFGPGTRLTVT", "not satisfied"),
    ("ht27M1019 (TCR, V domains shown) Valpha: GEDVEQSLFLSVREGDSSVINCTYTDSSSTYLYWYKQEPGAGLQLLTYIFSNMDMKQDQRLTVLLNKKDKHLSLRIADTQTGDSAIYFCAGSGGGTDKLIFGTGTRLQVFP Vbeta: GAVVSQHPSWVICKSGTSVKIECRSLDFQATTMFWYRQFPKQSLMLMATSDYQTCVTYEQGVEKDKFLINHASLTLSTLTVTSAHPEDSSFYICSAREPGSGPFEQYFGPGTRLTVT", "satisfied"),
]

Check if EC50 of peptide falls below 60 nM for ht27M1457 (TCR, V domains shown) Valpha: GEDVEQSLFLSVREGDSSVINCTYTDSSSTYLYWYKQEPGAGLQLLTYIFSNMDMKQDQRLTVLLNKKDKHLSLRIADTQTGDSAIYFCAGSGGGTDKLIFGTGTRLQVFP Vbeta: GAVVSQHPSWVICKSGTSVKIECRSLDFQATTMFWYRQFPKQSLMLMATTDYGSKATYEQGVEKDKFLINHASLTLSTLTVTSAHPEDSSFYICSAREPGQGPYEQYFGPGTRLTVT . satisfied

Criterion: EC50 of peptide strictly below 60 nM. Is it met by ht27M1226 (TCR, V domains shown) Valpha: GEDVEQSLFLSVREGDSSVINCTYTDSLSTYLYWYKQEPGAGLQLLTYIFSNMDMKQDQRLTVLLNKKDKHLSLRIADTQTGDSAIYFCAGSGGGTDKLIFGTGTRLQVFP Vbeta: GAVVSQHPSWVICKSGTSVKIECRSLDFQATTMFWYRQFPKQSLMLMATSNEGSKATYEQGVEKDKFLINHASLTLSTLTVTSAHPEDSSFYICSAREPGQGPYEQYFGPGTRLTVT ? not satisfied

# check: EC50 of peptide < 60 nM for ht27M1128 (TCR, V domains shown) Valpha: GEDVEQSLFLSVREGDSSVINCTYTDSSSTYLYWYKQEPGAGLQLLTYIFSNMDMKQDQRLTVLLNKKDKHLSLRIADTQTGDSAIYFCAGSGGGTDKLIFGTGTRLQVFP Vbeta: GAVVSQHPSWVICKSGTSVKIECRSLDFQATTMFWYRQFPKQSLMLMATSNEGSKATYEQGVEKDKFLINHASLTLSTLTVTSAHPEDSSFYICLAREPGQGPYEQYFGPGTRLTVT satisfied
